These measurements were taken from patent US4439426A.

- Tested on: Staphylococcus aureus ATCC 6538 P LRP 39
- ASSAY_COMMENT: Bacteriostatic power in liquid medium (MIC)
- Type: cell-based
- CONDITION_SET: Staphylococcus aureus, ATCC6538; liquid medium; read-out: Minimum inhibiting concentration
- Excerpt: the bacteriostatic power, expressed as the minimum inhibiting concentration (MIC) against both aerobic and anaerobic, Gram positive and Gram negative, bacterial stocks: the related results are reported in the tables 2 and 3.
MEASURE: MIC (µg/mL)
# unit: µg/mL | format: bare number

Looking up "CC[C@H]1OC(=O)[C@H](C)[C@@H](O[C@H]2C[C@@](C)(O)[C@@H](O)[C@H](C)O2)[C@H](C)[C@@H](O[C@@H]2O[C@H](C)C[C@H](N(C)C)[C@H]2O)[C@](C)(O)C[C@](C)(F)C(=O)[C@H](C)[C@@H](O)[C@]1(C)O" , I see its MIC listed as 0.195

Reported MIC ( CC[C@H]1OC(=O)[C@H](C)[C@@H](O[C@H]2C[C@@](C)(OC)[C@@H](O)[C@H](C)O2)[C@H](C)[C@@H](O[C@@H]2O[C@H](C)C[C@H](N(C)C)[C@H]2O)[C@](C)(O)C[C@@H](C)C(=O)[C@H](C)[C@@H](O)[C@H]1C [Erythromycin B, reference compound] ) = 0.195

###

- Test system: Streptococcus faecalis LRP 7
- ASSAY_COMMENT: Bacteriostatic power in solid medium (MIC)
- Type: cell-based
- CONDITION_SET: Enterococcus faecalis, LRP7, read-out: Minimum inhibiting concentration
So I've got a bunch of compounds here, and I need their MIC values.
The response must be a number in µg/mL with no trailing unit.

The recorded MIC for entry "CC[C@H]1OC(=O)[C@H](C)[C@@H](O[C@H]2C[C@H](OC)[C@@H](O)[C@H](C)O2)[C@H](C)[C@@H](O[C@@H]2O[C@H](C)C[C@H](N(C)C)[C@H]2O)[C@](C)(O)C[C@](C)(F)C(=O)[C@H](C)[C@@H](O)[C@H]1C" equals 0.39

Memo: "CC[C@H]1OC(=O)[C@H](C)[C@@H](O[C@H]2C[C@H](OC)[C@@H](O)[C@H](C)O2)[C@H](C)[C@@H](O[C@@H]2O[C@H](C)C[C@H](N(C)C)[C@H]2O)[C@](C)(O)C[C@](C)(F)C(=O)[C@H](C)[C@@H](O)[C@]1(C)O" , reported MIC: 0.39

GET /value?item= "CC[C@H]1OC(=O)[C@H](C)[C@@H](O[C@H]2C[C@@](C)(OC)[C@@H](O)[C@H](C)O2)[C@H](C)[C@@H](O[C@@H]2O[C@H](C)C[C@H](N(C)C)[C@H]2O)[C@](C)(O)C[C@](C)(F)C(=O)[C@H](C)[C@@H](O)[C@]1(C)O" &field=MIC returns 0.195

So, CC[C@H]1OC(=O)[C@H](C)[C@@H](O[C@H]2C[C@@](C)(OC)[C@@H](O)[C@H](C)O2)[C@H](C)[C@@H](O[C@@H]2O[C@H](C)C[C@H](N(C)C)[C@H]2O)[C@](C)(O)C[C@@H](C)C(=O)[C@H](C)[C@@H](O)[C@]1(C)O [Erythromycin A, reference compound] ? Its MIC was 0.097

###

- Tested on: Staphylococcus aureus ATCC 6538 P LRP 39
- ASSAY_COMMENT: Bacteriostatic power in liquid medium (MIC)
- Format: cell-based
- CONDITION_SET: Staphylococcus aureus, ATCC6538; liquid medium; read-out: Minimum inhibiting concentration
- Description: the bacteriostatic power, expressed as the minimum inhibiting concentration (MIC) against both aerobic and anaerobic, Gram positive and Gram negative, bacterial stocks: the related results are reported in the tables 2 and 3.
MEASURE: MIC (µg/mL)
Your answer is read as µg/mL, so omit the unit and give the number.

MIC reported for this molecule CC[C@H]1OC(=O)[C@H](C)[C@@H](O[C@H]2C[C@@](C)(O)[C@@H](O)[C@H](C)O2)[C@H](C)[C@@H](O[C@@H]2O[C@H](C)C[C@H](N(C)C)[C@H]2O)[C@](C)(O)C[C@](C)(F)C(=O)[C@H](C)[C@@H](O)[C@H]1C [P-80202, (8S)-8-fluoroerythromycin D] : 0.195

The recorded MIC for CC[C@H]1OC(=O)[C@H](C)[C@@H](O[C@H]2C[C@@](C)(OC)[C@@H](O)[C@H](C)O2)[C@H](C)[C@@H](O[C@@H]2O[C@H](C)C[C@H](N(C)C)[C@H]2O)[C@](C)(O)C[C@](C)(F)C(=O)[C@H](C)[C@@H](O)[C@H]1C [P-80203, (8S)-8-fluoroerythromycin B] is 0.097

The molecule listed as CO[C@H]1C[C@H](O[C@H]2[C@H](C)[C@@H](O[C@@H]3O[C@H](C)C[C@H](N(C)C)[C@H]3O)[C@@H](C)C[C@@]3(CO3)C(=O)[C@H](C)[C@@H](O)[C@@H](C)[C@@H](C)OC(=O)[C@@H]2C)O[C@@H](C)[C@@H]1O [Oleandomycin, reference compound] has a reported MIC of 0.39

###

Assignment: determine reported MIC for the given compounds.
- Test system: Staphylococcus aureus ATCC 6538P LRP 14
- ASSAY_COMMENT: Bacteriostatic power in solid medium (MIC)
- Format: cell-based
- CONDITION_SET: Staphylococcus aureus, ATCC6538P, read-out: Minimum inhibiting concentration
Number in µg/mL, nothing else.

MIC recorded for this compound, "CC[C@H]1OC(=O)[C@H](C)[C@@H](O[C@H]2C[C@@](C)(OC)[C@@H](O)[C@H](C)O2)[C@H](C)[C@@H](O[C@@H]2O[C@H](C)C[C@H](N(C)C)[C@H]2O)[C@](C)(O)C[C@](C)(F)C(=O)[C@H](C)[C@@H](O)[C@]1(C)O" , is 0.097

Form field MIC, entry "CC[C@H]1OC(=O)[C@H](C)[C@@H](O[C@H]2C[C@H](OC)[C@@H](O)[C@H](C)O2)[C@H](C)[C@@H](O[C@@H]2O[C@H](C)C[C@H](N(C)C)[C@H]2O)[C@](C)(O)C[C@](C)(F)C(=O)[C@H](C)[C@@H](O)[C@H]1C" : 0.39

Reported MIC ( "CC[C@H]1OC(=O)[C@H](C)[C@@H](O[C@H]2C[C@H](OC)[C@@H](O)[C@H](C)O2)[C@H](C)[C@@H](O[C@@H]2O[C@H](C)C[C@H](N(C)C)[C@H]2O)[C@](C)(O)C[C@](C)(F)C(=O)[C@H](C)[C@@H](O)[C@]1(C)O" ) = 0.39

Query CC[C@H]1OC(=O)[C@H](C)[C@@H](O[C@H]2C[C@@](C)(OC)[C@@H](O)[C@H](C)O2)[C@H](C)[C@@H](O[C@@H]2O[C@H](C)C[C@H](N(C)C)[C@H]2O)[C@](C)(O)C[C@@H](C)C(=O)[C@H](C)[C@@H](O)[C@]1(C)O [Erythromycin A, reference compound] yields MIC of 0.049

###

I'd appreciate it if you could supply MIC values for the items below.
- Tested on: Bacteroides fragilis ATCC 23745 LRP 205
- ASSAY_COMMENT: Bacteriostatic power in solid medium (MIC)
- Type: cell-based
- CONDITION_SET: Bacteroides fragilis, ATCC23745, read-out: Minimum inhibiting concentration
- Text: the bacteriostatic power, expressed as the minimum inhibiting concentration (MIC) against both aerobic and anaerobic, Gram positive and Gram negative, bacterial stocks: the related results are reported in the tables 2 and 3.
Value expressed in µg/mL; do not type the unit.

// MIC lookup, molecule = "CC[C@H]1OC(=O)[C@H](C)[C@@H](O[C@H]2C[C@@](C)(OC)[C@@H](O)[C@H](C)O2)[C@H](C)[C@@H](O[C@@H]2O[C@H](C)C[C@H](N(C)C)[C@H]2O)[C@](C)(O)C[C@](C)(F)C(=O)[C@H](C)[C@@H](O)[C@]1(C)O" , result: 0.195

Sure, the documented MIC for "CC[C@H]1OC(=O)[C@H](C)[C@@H](O[C@H]2C[C@H](OC)[C@@H](O)[C@H](C)O2)[C@H](C)[C@@H](O[C@@H]2O[C@H](C)C[C@H](N(C)C)[C@H]2O)[C@](C)(O)C[C@](C)(F)C(=O)[C@H](C)[C@@H](O)[C@H]1C" is 3.12

Value of MIC reported for the molecule CC[C@H]1OC(=O)[C@H](C)[C@@H](O[C@H]2C[C@@](C)(OC)[C@@H](O)[C@H](C)O2)[C@H](C)[C@@H](O[C@@H]2O[C@H](C)C[C@H](N(C)C)[C@H]2O)[C@](C)(O)C[C@@H](C)C(=O)[C@H](C)[C@@H](O)[C@]1(C)O [Erythromycin A, reference compound] is 0.195

Sample "CC[C@H]1OC(=O)[C@H](C)[C@@H](O[C@H]2C[C@H](OC)[C@@H](O)[C@H](C)O2)[C@H](C)[C@@H](O[C@@H]2O[C@H](C)C[C@H](N(C)C)[C@H]2O)[C@](C)(O)C[C@](C)(F)C(=O)[C@H](C)[C@@H](O)[C@]1(C)O" ; MIC observed: 3.12
